# experimental-system: T1, cynomolgus (cyno) TMEM106B (cynomolgus, UniProt Q9NUM4 2-274 (human entry))
# T1 construct: Full-length cDNA transiently transfected into HEK293 cells
# assay-text: flow cytometry, HEK293 cells transiently transfected with cyno TMEM106B
Readings of fold-change in binding over parental HEK293 cells for the listed binders
Write down the numeric answer in fold and omit the unit.

[
  {
    "binder": "TM-86 (antibody, V domains shown, Purified from mouse hybridoma) VH: EVQLQQSGPVLVKPGASVKMSCKASGYTFTDYYIHWVKQSHGRSLEWIGVISPYNDNTNYNQKFKGKATLTVDKSSSTAYMELNSLTSEDSAVYYCVRTYYSNYFDYWGQGTTLTVSS VL: DIVMTQSPSSLSVSAGEKVTMSCKSSQSLLNSGNQKNYLAWHQQRPGQPPKLLIYGASTRESGVPDRFTGSGSGTEFTLTISSVQAEDLAVYYCQNDHSYPLTFGAGTKLELK",
    "unit-abbreviation": "fold",
    "numeric-result": 5.81
  },
  {
    "binder": "TM-76 (antibody, V domains shown, Purified from mouse hybridoma) VH: QVTLKESGPGILQPSQTLSLTCSFSGFSLSTSGMGVSWIRKPSGKGLEWLAHIFWDDDKRYNLFLKSRLTVSKDTSSNQVFLMITSVDTTDTATYYCARMGRQRDYFDYWGQGTSLTVSS VL: QIILTQSPAIMSASLGEEITLTCSASLSISYVHWYQQKSGASPKLLIYGTSNLASGVPSRFSGSGSGTFYSLTISSVEAEDAADYYCHQWSIYRTFGGGTKLEMK",
    "unit-abbreviation": "fold",
    "numeric-result": 4.35
  }
]

Next binder, fold-change in binding over parental HEK293 cells to be filled in.
Query :: Identify measured fold-change in binding over parental HEK293 cells associated with TM-78 (antibody, V domains shown, Purified from mouse hybridoma) VH: QVQLQQPGAELVKPGASVKLSCKASGYTFTNHWMHWVRQRPGQGLEWIGNIDPSDSDTHYNHKFKDKATLIVDKSSSTAYLQLSSLTSEDSAVFYCARSRGGYYDYGEAMDYWGQGTSVTVSS VL: DIVMTQATPSIPVTPGESVSISCRSSKSLLHVNGNTYLFWFLQRPGQSPQLLIYRMSNLASGVPDRFSGSGSGTAFTLRISRVEAEDVGVYYCMQHLEYPFTFGSGTKLEIK
Result :: 6.88
